All figures here come from paper PMC9352680.

Target: T1, PUF4 RNA-binding domain (Saccharomyces cerevisiae, UniProt P25339 537-888)
T1 sequence: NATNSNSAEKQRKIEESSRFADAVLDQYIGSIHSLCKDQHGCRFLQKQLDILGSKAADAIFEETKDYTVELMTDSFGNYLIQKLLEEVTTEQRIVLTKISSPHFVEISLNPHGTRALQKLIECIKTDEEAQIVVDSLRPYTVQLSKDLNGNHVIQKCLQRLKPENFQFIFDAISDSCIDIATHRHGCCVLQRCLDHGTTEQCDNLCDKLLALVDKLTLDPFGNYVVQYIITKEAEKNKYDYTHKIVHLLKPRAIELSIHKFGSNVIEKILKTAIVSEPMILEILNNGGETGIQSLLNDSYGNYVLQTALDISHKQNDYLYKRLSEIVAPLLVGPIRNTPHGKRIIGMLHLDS
Experiment: Mg; RNA-MaP; 20 mM Na-HEPES pH 7.4, 30 mM KOAc, 0.75 mM MgCl2, 0.1% Tween-20, 5% glycerol, 0.1 mg/mL BSA, 2 mM DTT; 25 C; 0.0125-409.6 nM protein
Conditions: tags: N-His6-TEV cleaved; C-SNAP kept, Cy3B-labelled; label: tethered on chip by stalled RNA polymerase
pKd: −log10 of the molar value.

| binder | pKd |
| --- | --- |
| Ic_S2_P3E.1_K3.1_C3.1_H3.1_A3.1_[A6C]_F3.1_[T7C]_[A8C]_T3.1 (ssRNA) RNA: UUUGAUUAAUAUGAUAUCGUUCUUUCUUGUAUCCCUUCUUUCUCGAUAUCAUAUUAAUCUUU | 6.88 |
| UCUCUUUGUAUAUAUUAGGUCUCUU (ssRNA) [Id_ii_S1_P4E.3_K4.2_C4.2_[C-2T]_[T-1G]_H4.2_A4.1_F4.1_T4.2_[T11G]] | 8.11 |
| UCUCUUUGUAUAUUUCAUCUCUU (ssRNA) [Ie_S1_P4E.1_K4.1_C4.1_H4.1_A4.1_F4.1_[+8TC]_T4.1] | 8.26 |
| UCUCUUUGUAUAUAUCUCUU (ssRNA) [If_S1_P3E.1_K3.1_C3.1_H3.1_A3.1_F3.1_T3.1] | 8.31 |
| Ib_S4_P5E.1_K5.1_C5.1_H5.1_A5.1_[T5A]_[A7G]_F5.1_T5.1 (ssRNA) RNA: UUUGACAACUGAUCGUUCUUUCUUGUAAUGUUAUUCUUUCUCGAUCAGUUGUCUUU | 7.82 |
| ACAAACUGUAUUAUUUCUCAACAAAC (ssRNA) [Ie_S3_P5E.1_K5.1_C5.1_H5.1_A5.1_F5.1_[+9TCTC]_T5.1] | 7.71 |
